melting point values by entry
assay.readout: melting point

query.smiles: COc1ccc2c(C#N)c(-c3ccc(S(=O)(=O)N[C@@H](C)C(F)(F)F)cn3)n(C3CCCC3)c2c1
observed.result: 209 to 216 °C

query.smiles: CC(C)Oc1ccc2c(C#N)c(-c3ccc(NS(C)(=O)=O)nn3)n(C3CCC3)c2c1
observed.result: 225 to 227 °C

query.smiles: Cc1ccc2c(C#N)c(-c3ncc(S(=O)(=O)NC(CF)CF)cn3)n(-c3ccccc3)c2c1
observed.result: 169 to 171 °C

query.smiles: CC(C)c1ccc2c(C#N)c(-c3ccc(S(=O)(=O)NC(CF)CF)cn3)n(CC3CC3)c2c1
observed.result: 132 to 134 °C

query.smiles: Cc1cc2c(cc1Cl)c(C#N)c(-c1ncc(S(=O)(=O)NC(CF)CF)cn1)n2C1CCC1
observed.result: 275 to 279 °C

query.smiles: N#Cc1c(-c2ccc(S(=O)(=O)NC(CF)CF)cn2)n(-c2ccc(F)cc2)c2cc(OC(F)F)ccc12
observed.result: 192 to 198 °C

query.smiles: Cc1cc2c(cc1F)c(C#N)c(-c1ccc(S(=O)(=O)NC(CF)CF)cn1)n2C1CCCC1
observed.result: 211 to 213 °C

query.smiles: Cc1ccc2c(C#N)c(-c3ncc(S(=O)(=O)N[C@@H](C)C4CC4)cn3)n(CC3CC3)c2c1
observed.result: 205 to 207 °C

query.smiles: Cc1cnc(-n2c(-c3ccc(S(=O)(=O)N[C@@H](C)C(F)(F)F)cn3)c(C#N)c3cc(F)c(C)cc32)s1
observed.result: 223.1 to 228.1 °C

query.smiles: NC(=O)c1c(-c2ccc(S(N)(=O)=O)cn2)n(C2CCC2)c2cc(OC(F)F)ccc12
observed.result: 230 to 231 °C

query.smiles: Cc1cc2c(cc1F)c(C#N)c(-c1ccc(S(=O)(=O)NC3(C)CC3)cn1)n2C1CCCC1
observed.result: 208 to 209 °C

query.smiles: CC(C)NS(=O)(=O)c1cnc(-c2c(C#N)c3ccc(F)cc3n2C2CCCCC2)nc1
observed.result: 200 to 202 °C

query.smiles: CCc1cc2c(cc1F)c(C#N)c(-c1ccc(S(=O)(=O)N[C@@H](C)C(F)(F)F)cn1)n2-c1ccc(OC)cc1
observed.result: 261 to 266 °C

query.smiles: C[C@@H](NS(=O)(=O)c1ccc(-c2c(C#N)c3ccc(CF)cc3n2C2CCC2)nc1)C(F)(F)F
observed.result: 200 to 213 °C

query.smiles: C[C@H](NS(=O)(=O)c1ccc(-c2c(C#N)c3ccc(C4CCC4)cc3n2C2CCC2)nc1)C1CC1
observed.result: 124 to 126 °C

query.smiles: N#Cc1c(-c2ccc(NS(=O)(=O)C3CC3)cn2)n(CC2CC2)c2cc(OC(F)F)ccc12
observed.result: 156 to 158 °C

query.smiles: C[C@H](NS(=O)(=O)c1cnc(-c2c(C#N)c3ccc(F)cc3n2C2CCCCC2)nc1)C(F)(F)F
observed.result: 224 to 226 °C

query.smiles: Cc1cc2c(cc1F)c(C(N)=O)c(-c1ccc(S(=O)(=O)N[C@H](C)C(F)(F)F)cn1)n2C1CCOCC1
observed.result: 258 to 262 °C

query.smiles: CCS(=O)(=O)Nc1ccc(-c2c(C#N)c3ccc(OC)cc3n2C2CCC2)nn1
observed.result: 212 to 214 °C

query.smiles: C[C@H](NS(=O)(=O)c1ccc(-c2c(C(N)=O)c3c(F)cc(OC(F)F)cc3n2CC2CC2)nc1)C(F)(F)F
observed.result: 211 to 212 °C

query.smiles: CC(C)n1c(-c2ncc(S(=O)(=O)N[C@@H](C)C3CC3)cn2)c(C#N)c2ccc(OC(F)F)cc21
observed.result: 169 to 170 °C

query.smiles: CCc1cc2c(cc1F)c(C(N)=O)c(-c1ccc(S(=O)(=O)NC(C)(C)C)cn1)n2-c1ccccc1
observed.result: 237.9 to 238.9 °C

query.smiles: N#Cc1c(-c2ccc(S(=O)(=O)NC(CF)CF)cn2)n(C2CCCC2)c2cc(OC(F)F)c(F)cc12
observed.result: 190 to 194 °C

query.smiles: CC(C)NS(=O)(=O)c1cnc(-c2c(C#N)c3cc(Cl)ccc3n2C2CCCCC2)nc1
observed.result: 210 to 215 °C

query.smiles: Cc1cc2c(C#N)c(-c3ccc(S(=O)(=O)N[C@@H](C)C(F)(F)F)cn3)n(-c3ccccn3)c2cc1F
observed.result: 175 to 180 °C

query.smiles: Cc1ccc(-n2c(-c3ccc(S(=O)(=O)N[C@@H](C)C(F)(F)F)cn3)c(C#N)c3cc(F)c(C)cc32)s1
observed.result: 246.8 to 249.4 °C

query.smiles: COc1ccc2c(c1)c(C#N)c(-c1ncc(S(=O)(=O)N[C@@H](C)C(F)(F)F)cn1)n2C1CCC1
observed.result: 203 to 205 °C

query.smiles: CC(C)(NS(=O)(=O)c1ccc(-c2c(C#N)c3ccc(OC(F)F)cc3n2-c2ccc(F)cc2)nc1)C(F)(F)F
observed.result: 215 to 216 °C

query.smiles: Cc1cc2c(cc1F)c(C#N)c(-c1ccc(S(=O)(=O)NC(C)(C)C(F)(F)F)cn1)n2C1CCC1
observed.result: 238 to 243 °C

====

query.smiles: C[C@H](NS(=O)(=O)c1ccc(-c2c(C#N)c3cc(Cl)ccc3n2-c2ccccn2)nc1)C(F)(F)F
melting point: 186 to 188 °C
//
query.smiles: CCc1cc2c(cc1F)c(C(=O)O)c(-c1ccc(NS(=O)(=O)C(C)(C)C)cn1)n2C1CCCCC1
melting point: 224 to 226 °C
//
query.smiles: Cc1ccc2c(C#N)c(-c3ccc(S(=O)(=O)NC(CF)CF)cn3)n(C3CCCC3)c2c1
melting point: 144 to 145 °C
//
query.smiles: CCc1cc2c(cc1F)c(C#N)c(-c1ccc(S(=O)(=O)N[C@@H](C)C(F)(F)F)cn1)n2-c1cccc(F)n1
melting point: 205 to 211 °C
//
query.smiles: Cc1cc2c(C#N)c(-c3ncc(S(=O)(=O)NC(C)C)cn3)n(C3CCC3)c2cc1Cl
melting point: 217 to 218 °C
//
query.smiles: N#Cc1c(-c2ccc(S(=O)(=O)NC(CF)CF)cn2)n(C2CCCCC2)c2cc(Cl)ccc12
melting point: 203 to 207 °C
//
query.smiles: CCc1cc2c(cc1F)c(C#N)c(-c1cc(C)c(S(=O)(=O)N[C@@H](C)C(F)(F)F)cn1)n2-c1ncccn1
melting point: 231 to 236 °C

====

This section presents compounds with their documented melting point values.
assay.readout: melting point

compound: CC(C)(C)NS(=O)(=O)c1ccc(-c2c(C#N)c3cc(Cl)ccc3n2C2CCC2)nc1 [compound 15]
assay.readout: melting point
observed.result: 195 to 197 °C

compound: N#Cc1c(-c2ccc(S(=O)(=O)NC(CO)CO)cn2)n(C2CCC2)c2cc(OC(F)F)ccc12 [compound 239]
assay.readout: melting point
observed.result: 132 to 135 °C

compound: Cc1cc2c(cc1F)c(C#N)c(-c1ccc(S(=O)(=O)N[C@@H](C)C(F)(F)F)cn1)n2-c1ccoc1 [compound 991]
assay.readout: melting point
observed.result: 215 to 219 °C

compound: CCc1cc2c(cc1F)c(C#N)c(-c1ccc(S(=O)(=O)N[C@@H](C)C(F)(F)F)cn1)n2-c1cc(OC)ccn1 [compound 955]
assay.readout: melting point
observed.result: 227 to 233 °C

compound: C[C@H](NS(=O)(=O)c1cnc(-c2c(C#N)c3cc(C#N)ccc3n2C2CCCC2)nc1)C(F)(F)F [compound 392]
assay.readout: melting point
observed.result: 250 to 254 °C

compound: Cc1cc2c(C#N)c(-c3ccc(S(=O)(=O)N[C@@H](C)C(F)(F)F)cn3)n(C3CCC3)c2cc1OC(F)F [compound 660]
assay.readout: melting point
observed.result: 168 to 170 °C

compound: Cc1ccc2c(c1)c(C#N)c(-c1ccc(S(=O)(=O)NC(C)(C)C(F)(F)F)cn1)n2C1CCCC1 [compound 607]
assay.readout: melting point
observed.result: 176 to 181 °C

compound: COc1ccc2c(c1)c(C#N)c(-c1ccc(S(=O)(=O)N[C@H](C)C(F)(F)F)cn1)n2C1CCC1 [compound 500]
assay.readout: melting point
observed.result: 181 to 186 °C

compound: Cc1cnc(-n2c(-c3ccc(S(=O)(=O)N[C@@H](C)C(F)(F)F)cn3)c(C#N)c3cc(F)c(C)cc32)nc1 [compound 925]
assay.readout: melting point
observed.result: 179 to 184 °C

compound: C[C@H](NS(=O)(=O)c1ccc(-c2c(C#N)c3cc(F)ccc3n2CC2CC2)nc1)C(F)(F)F [compound 436]
assay.readout: melting point
observed.result: 165 to 167 °C

compound: C[C@H](NS(=O)(=O)c1cnc(-c2c(C#N)c3ccc(OC(F)F)cc3n2CC2CC2)nc1)C(F)(F)F [compound 398]
assay.readout: melting point
observed.result: 211 to 212 °C

compound: CCc1cc2c(cc1F)c(C#N)c(-c1ccc(S(=O)(=O)N[C@@H](C)C(F)(F)F)cn1)n2-c1ccncc1 [compound 974]
assay.readout: melting point
observed.result: 209 to 215 °C

compound: Cc1cc2c(cc1O)c(C(N)=O)c(-c1ccc(S(=O)(=O)N[C@@H](C)C(F)(F)F)cn1)n2C1CCC1 [compound 833]
assay.readout: melting point
observed.result: 256 to 258 °C

compound: COc1ccc2c(C#N)c(-c3ccc(NS(=O)(=O)C(C)(C)C)nn3)n(C3CCC3)c2c1 [compound 278]
assay.readout: melting point
observed.result: 218 to 220 °C
